Catalogue of compounds with associated EC50
System: HBV (encapsidated HBV DNA, HepG2.2.15 cells)
experimentNotes: HBV replication inhibition assay, BDNA assay in HepG2.2.15 cells
Assay type: cell-based
conditions: Hepatitis B virus, HepG2.2.15, Activity in BDNA-assay

Some entries whose results are on file:
compound	measuredTarget	EC50
CN1CC(S(C)(=O)=O)Cn2nc3c(c2C1=O)CN(C(=O)Nc1ccc(F)c(Cl)c1)CC3 (stereo not shown)	HBV (encapsidated HBV DNA, HepG2.2.15 cells)	1 to 100 nM
CCC(O)C1CN(C)C(=O)c2c3c(nn2C1)CCN(C(=O)Nc1ccc(F)c(Cl)c1)C3 (stereo not shown)	HBV (encapsidated HBV DNA, HepG2.2.15 cells)	1 to 100 nM
CCC(O)C1CN(C)C(=O)c2c3c(nn2C1)CCN(C(=O)Nc1ccc(F)c(Br)c1)C3 (stereo not shown)	HBV (encapsidated HBV DNA, HepG2.2.15 cells)	1 to 100 nM
CN1CC(N2CCC(F)(F)CC2)Cn2nc3c(c2C1=O)CN(C(=O)Nc1ccc(F)c(Cl)c1)CC3 (stereo not shown)	HBV (encapsidated HBV DNA, HepG2.2.15 cells)	100 to 500 nM
CN1CC(CNCC(F)F)Cn2nc3c(c2C1=O)CN(C(=O)Nc1ccc(F)c(C(F)(F)F)c1F)CC3 (single isomer, unassigned)	HBV (encapsidated HBV DNA, HepG2.2.15 cells)	100 to 500 nM
Cn1c(CO)cn2nc3c(c2c1=O)CN(C(=O)Nc1ccc(F)c(Cl)c1)CC3	HBV (encapsidated HBV DNA, HepG2.2.15 cells)	1 to 100 nM

For the next question, use this compound.
Ask: EC50 for CN1C(=O)c2c3c(nn2CC1CO)CCN(C(=O)Nc1ccc(F)c(Cl)c1)C3 (stereo not shown) ?
Reply: 1 to 100 nM

###

System: HBV (encapsidated HBV DNA, HepG2.2.15 cells)
experimentNotes: HBV replication inhibition assay, BDNA assay in HepG2.2.15 cells
Assay type: cell-based
conditions: Hepatitis B virus, HepG2.2.15, Activity in BDNA-assay
pEC50: −log10 of the molar value.
measurementKind: pEC50

molecule	measuredTarget	pEC50
C[C@@H]1Cc2nn3c(c2CN1C(=O)Nc1ccc(F)c(C(F)(F)F)c1)C(=O)N(C)C[C@@H](COCC(F)F)C3	HBV (encapsidated HBV DNA, HepG2.2.15 cells)	7.00 to 9.00
CCC(O)C1CN(C)C(=O)c2c3c(nn2C1)CCN(C(=O)Nc1cc(F)c(F)c(F)c1)C3 (single isomer, unassigned)	HBV (encapsidated HBV DNA, HepG2.2.15 cells)	7.00 to 9.00

The record that follows has no pEC50 shown yet.
Ask: Name the reported pEC50 value associated with the molecule CN1CC(CN2CCCCC2)Cn2nc3c(c2C1=O)CN(C(=O)Nc1ccc(F)c(Cl)c1)CC3 (stereo not drawn)
Reply: 6.30 to 7.00

###

System: HBV (encapsidated HBV DNA, HepG2.2.15 cells)
experimentNotes: HBV replication inhibition assay, BDNA assay in HepG2.2.15 cells
Type: cell-based
conditions: Hepatitis B virus, HepG2.2.15, Activity in BDNA-assay
measurementKind: EC50

compound	measuredTarget	testValue
CNC1CN(C)C(=O)c2c3c(nn2C1)CCN(C(=O)Nc1ccc(F)c(Cl)c1)C3 (stereo not drawn) [Compound 050]	HBV (encapsidated HBV DNA, HepG2.2.15 cells)	100 to 500 nM
CCC(O)C1CN(C)C(=O)c2c3c(nn2C1)CC(C)N(C(=O)Nc1ccc(F)c(Br)c1)C3 (stereo not drawn) [Compound 109_D1]	HBV (encapsidated HBV DNA, HepG2.2.15 cells)	1 to 100 nM
CN1CC(C(C)(C)O)Cn2nc3c(c2C1=O)CN(C(=O)Nc1ccc(F)c(Cl)c1)CC3 (stereo not drawn) [Compound 033]	HBV (encapsidated HBV DNA, HepG2.2.15 cells)	1 to 100 nM
C[C@@H]1Cc2nn3c(c2CN1C(=O)Nc1ccc(F)c(C#N)c1)C(=O)N(C)[C@H](CF)C3 [Compound 149]	HBV (encapsidated HBV DNA, HepG2.2.15 cells)	1 to 100 nM
C[C@@H]1Cc2nn3c(c2CN1C(=O)Nc1ccnc(Br)c1F)C(=O)N(CC(F)F)CCC3 [Compound 075]	HBV (encapsidated HBV DNA, HepG2.2.15 cells)	1 to 100 nM
CCC(O)C1CN(C)C(=O)c2c3c(nn2C1)CCN(C(=O)Nc1ccc(F)c(C(F)(F)F)c1F)C3 (single isomer, unassigned) [Compound 103_E1]	HBV (encapsidated HBV DNA, HepG2.2.15 cells)	1 to 100 nM

Ask: Fill blank: measured EC50 of the compound Cn1c(C(=O)O)cn2nc3c(c2c1=O)CN(C(=O)Nc1ccc(F)c(Cl)c1)CC3 [Compound 042] is ____.
Reply: > 1000 nM

Ask: I would be grateful if you could share the reported EC50 for C[C@@H]1Cc2nn3c(c2CN1C(=O)Nc1ccc(F)c(Cl)c1)C(=O)N(CC(F)F)CC(CO)C3 (single isomer, unassigned) [Compound 092_D1] .
Reply: 1 to 100 nM

Ask: Using the record for CN1CC(F)Cn2nc3c(c2C1=O)CN(C(=O)Nc1ccc(F)c(Br)c1)CC3 (stereo not drawn) [Compound 007] , report its EC50.
Reply: 1 to 100 nM

Ask: Record request: EC50 value, item Cc1cc(NC(=O)N2CCc3nn4c(c3C2)C(=O)N(C)CC(F)C4)ccc1F (stereo not drawn) [Compound 010]
Reply: 1 to 100 nM

Ask: Which EC50 is reported for this compound? COC(=O)CC1CN(C)C(=O)c2c3c(nn2C1)CCN(C(=O)Nc1ccc(F)c(Cl)c1)C3 (stereo not drawn) [Compound 028]
Reply: 100 to 500 nM

Ask: Record request: EC50 value, item CN1CC(C(O)CC2CC2)Cn2nc3c(c2C1=O)CN(C(=O)Nc1ccc(F)c(Cl)c1)CC3 (stereo not drawn) [Compound 047]
Reply: 1 to 100 nM
